System: DMS 114 small cell lung
ASSAY REMARKS: NCI tumour cell line growth inhibition, 48 h
PROPERTY NAME: TGI

Task: Data request, read-out TGI, for Clc1ncnc2c1ncn2CCCCCCCCCCCCn1cnc2c(Cl)ncnc21
Result: 3.55 µM

Task: Data request, read-out TGI, for NC1=C(Cl)C(=O)c2ccccc2C1=O
Result: 13.4 µM

Task: Data request, read-out TGI, for Cc1cc(N=C2C=C(Nc3cc(C)on3)C(=O)c3ccccc32)no1
Result: 73.7 µM

Task: Data request, read-out TGI, for COc1ccc(C(O)/C(=C/n2ccnc2)c2ccccc2)cc1OC (stereo not given)
Result: > 100 µM

Task: Data request, read-out TGI, for COc1nc2[nH]ccc2c(=O)n1C
Result: > 100 µM

----------
System: KM12 colon
ASSAY REMARKS: NCI tumour cell line growth inhibition, 48 h
PROPERTY NAME: log10(TGI) (log10 of the value in µM)
Hey, these are logged values: log10 of TGI, µM being the unit before logging.

Task: Provide value of log10(TGI) for this record tested with KM12 colon: CC(C)C(C/C=C1\CC(CO)(COC(=O)CC(C(C)C)C(C)C)OC1=O)C(C)C (stereo not given)
Result: 1.46

Task: Provide value of log10(TGI) for this record tested with KM12 colon: O=C(/C=C\c1ccc2ccccc2n1)c1cc(Cl)ccc1O
Result: 1.39

Task: Provide value of log10(TGI) for this record tested with KM12 colon: O=C1C(N=Nc2ccc(-c3nc4ccccc4[nH]3)cc2)NC(=S)N1c1ccccc1 (stereo not given)
Result: 1.57

Task: Provide value of log10(TGI) for this record tested with KM12 colon: COc1cc2c(c(OC)c1OC)-c1ccc(SC)c(=O)cc1C(CC(=O)Oc1cccc(C#N)c1)C2 (stereo not given)
Result: 0.68

Task: Provide value of log10(TGI) for this record tested with KM12 colon: C[C@H](CCC1=NCCN1)[C@H]1CC[C@H]2[C@@H]3CC[C@@H]4C[C@H](O)CC[C@]4(C)[C@H]3C[C@H](O)[C@]12C
Result: 1.38

Task: Provide value of log10(TGI) for this record tested with KM12 colon: COc1cc(/C=C2\C(=O)Nc3ccccc32)cc(OC)c1OC
Result: 1.99

Task: Provide value of log10(TGI) for this record tested with KM12 colon: CCC(C)C1(O)OC2CC3(C)OC(=CC3=O)/C(C)=C\C3OC(=O)C1(C)C32 (stereo not given)
Result: 1.39

Task: Provide value of log10(TGI) for this record tested with KM12 colon: COc1ccc(C2=CN3CCC[C@H]3C=C2c2cc(O)c(OC)c(OC)c2)cc1OC
Result: -1.40

Task: Provide value of log10(TGI) for this record tested with KM12 colon: COc1cc(-c2n/c(=C\c3c(O)[nH]c4ccccc34)cc3c2=Nc2ccccc2-3)cc(OC)c1OC
Result: 1.21

Task: Provide value of log10(TGI) for this record tested with KM12 colon: CCCCCCN1CCN(Cc2ccc(N(CC)CC)cc2)C(=O)C1=O
Result: 1.92

----------
Tested on: A549 NSCLC
ASSAY REMARKS: NCI tumour cell line growth inhibition, 48 h
So I've got a bunch of compounds here, and I need their TGI values.

Task: Data request, read-out TGI, for CCOC(=O)C(=O)Nc1ccc(Cl)c(C(F)(F)F)c1
Result: > 100 µM

Task: Data request, read-out TGI, for COc1ccc(-c2cc(-c3nnc(SCC(=O)Nc4ccc(C(C)=O)cc4)o3)c3ccccc3n2)cc1
Result: > 100 µM

Task: Data request, read-out TGI, for NC(N)=N/N=C/c1c(-c2ccc(Cl)c([N+](=O)[O-])c2)nc2ccccn12
Result: 2.99 µM

Task: Data request, read-out TGI, for CCC(C)C1(O)OC2CC3(C)OC(=CC3=O)/C(C)=C\C3OC(=O)C1(C)C32 (stereo not given)
Result: > 100 µM

Task: Data request, read-out TGI, for CO/N=C(/COc1c(-c2ccccc2)oc2ccccc2c1=O)c1ccc(F)cc1
Result: > 100 µM

Task: Data request, read-out TGI, for CN1C(=O)C(c2c[nH]c3ccccc23)=C(c2c(-c3c[nH]c4ccccc34)[nH]c3ccccc23)C1=O
Result: 13.9 µM

Task: Data request, read-out TGI, for COc1ccc(-n2c3c(c4c(CN(C)C)c(O)c(C)cc42)CCc2ccccc2C3=O)cc1
Result: > 100 µM

Task: Data request, read-out TGI, for COC(=O)n1c(CBr)c(Br)c2ccccc21
Result: > 100 µM

Task: Data request, read-out TGI, for OCCO[P+]1(OCCO)n2c3ccc2C(c2ccccc2)=C2C=CC(=N2)C(c2ccccc2)=c2ccc(n21)=C(c1ccccc1)C1=NC(=C3c2ccccc2)C=C1
Result: 1.93 µM

Task: Data request, read-out TGI, for O=C(c1ccccc1)N1C(=S)N(c2ccc([N+](=O)[O-])cc2)C(=Nc2ccccc2)C1=Nc1ccccc1
Result: > 100 µM

Task: Data request, read-out TGI, for COc1cc(/C=C2\C(=O)Nc3ccccc32)cc(OC)c1OC
Result: > 100 µM

Task: Data request, read-out TGI, for O=[N+]([O-])/C=C/c1ccc([N+](=O)[O-])cc1
Result: 13.1 µM

Task: Data request, read-out TGI, for CC(=O)NC1=C(C)C(=O)c2c(nc3n2CC[C@H]3OC(C)=O)C1=O
Result: 24.8 µM

Task: Data request, read-out TGI, for COc1cc2c(cc1Cl)n([O-])c(C#N)c(N1CCN(c3ccc([N+](=O)[O-])cc3)CC1)[n+]2=O
Result: > 100 µM

Task: Data request, read-out TGI, for Cc1cn2c(=O)n(c1=O)Cc1ccccc1C2
Result: > 100 µM

Task: Data request, read-out TGI, for Cc1ccc(F)cc1NC(=O)c1cc(Cl)ccc1Nc1ccccc1
Result: > 100 µM

Task: Data request, read-out TGI, for COc1cc(CNc2nc3cc(C(F)(F)F)ccc3nc2C)cc(OC)c1OC
Result: > 100 µM

Task: Data request, read-out TGI, for COc1cc2c3c(n(C)c(=O)c2cc1OC)-c1cc2c(cc1/C3=C/[C@H](N)CCCCN)OCO2
Result: 24.5 µM

Task: Data request, read-out TGI, for CNCCOC(=O)/C=C1/CCC2C(C(O)CC3C(C)(C(=O)OC)CCCC23C)C1C (stereo not given)
Result: 0.0116 µM

Task: Data request, read-out TGI, for O=C1C(N=Nc2ccc(-c3nc4ccccc4[nH]3)cc2)NC(=S)N1c1ccccc1 (stereo not given)
Result: > 100 µM

----------
So I've got a bunch of molecules here, and I need their TGI values.
Test system: XF 498 CNS
ASSAY REMARKS: NCI tumour cell line growth inhibition, 48 h
API: value field is a number in µM; no unit string.

Task: Data request, read-out TGI, for Clc1ncnc2c1ncn2CCCCCCCCCCCCn1cnc2c(Cl)ncnc21
Result: 21.6

Task: Data request, read-out TGI, for CCC[CH2][Sn]1([CH2]CCC)[O]C(=O)CN=Cc2ccccc2[O]1
Result: 0.282

Task: Data request, read-out TGI, for CC(=O)O[C@H]1CC[C@@]2(C)C(=CC[C@@H]3C2CC[C@]2(C)Nc4[nH]ncc4CC32)C1 (some centres undefined)
Result: 34.2

Task: Data request, read-out TGI, for NC1=C(Cl)C(=O)c2ccccc2C1=O
Result: 24.5

Task: Data request, read-out TGI, for Cc1cc(NC(=O)NC(=O)c2ccccc2NC(=O)CN)ccc1Oc1ncc(Br)cn1
Result: 75

Task: Data request, read-out TGI, for COc1cc2c(c(OC)c1OC)-c1ccc(SC)c(=O)cc1C(CC(=O)Oc1cccc(C#N)c1)C2 (centres undefined)
Result: 2.23

Task: Data request, read-out TGI, for Clc1cc(Cl)cc(Nc2nc3ccccc3nc2-c2cccs2)c1
Result: 73.2

----------
Tested on: 786-0 renal
ASSAY REMARKS: NCI tumour cell line growth inhibition, 48 h; in the data active = GI50 below about 0.43 µM; inactive = the rest
Tick one outcome: active, inactive

Task: Which outcome did this test record for the compound NC1=NC(c2ccc(F)cc2)C2=C(N1)c1ccc3ccccc3c1OCC2 (stereo not drawn) ?
Result: inactive

Task: Which outcome did this test record for the compound COc1ccc2c(c1)C(=O)c1c-2n(CCCN2CCOCC2)c(=O)c2cc([N+](=O)[O-])ccc12 ?
Result: active

Task: Which outcome did this test record for the compound O=C1OCC2=C1C(c1cccc(C(F)(F)F)c1)c1cc3c(cc1N2CCO)CCC3 (stereo not drawn) ?
Result: active

----------
System: EKVX NSCLC
ASSAY REMARKS: NCI tumour cell line growth inhibition, 48 h
PROPERTY NAME: TGI

Task: Data request, read-out TGI, for COc1cc2c(cc1OC)-c1c(c3ccc([N+](=O)[O-])cc3c(=O)n1CCCN)C2=O
Result: 18.3 µM

Task: Data request, read-out TGI, for O=C(OCc1ccccc1)N1c2cc([N+](=O)[O-])ccc2C(=O)N2CCC[C@H]2C1O (some centres undefined)
Result: > 100 µM

Task: Data request, read-out TGI, for CN1CCCCC(C(O)(c2ccccc2)c2ccccc2)C1=O (centres undefined)
Result: > 100 µM

Task: Data request, read-out TGI, for COc1ccc2c(c1)CC[C@@H]1[C@@H]2CC[C@]2(C)C(=O)/C(=C/c3cc(OC)c(OC)c(OC)c3)C[C@@H]12
Result: > 100 µM

Ref: PubChem BioAssay (NCI)
